Attribution: ChEMBL document CHEMBL1949531

Collected CC50 values appear next to each entry.
# Assay Procedure: Cytotoxicity in human TZM-bl cells by MTT assay
# Type: cell-based
Record the result as a number with its unit.

Below: 5 molecules and their reported CC50.
{"Molecule": "Cc1cc2c(c(O)c1-c1c(C)cc3c(c1O)/C(=C/N[C@H](C(=O)[O-])C(C)C)C(=O)C(O)=C3C(C)C)/C(=C/N[C@H](C(=O)[O-])C(C)C)C(=O)C(O)=C2C(C)C.[Na+].[Na+]", "CC50": "70.3 µM"}
{"Molecule": "Cc1cc2c(c(O)c1-c1c(C)cc3c(c1O)/C(=C/NCCS(=O)(=O)[O-])C(=O)C(O)=C3C(C)C)/C(=C/NCCS(=O)(=O)[O-])C(=O)C(O)=C2C(C)C.[Na+].[Na+]", "CC50": "53.4 µM"}
{"Molecule": "Cc1cc2c(c(O)c1-c1c(C)cc3c(c1O)/C(=C/NCCCCCC(=O)[O-])C(=O)C(O)=C3C(C)C)/C(=C/NCCCCCC(=O)[O-])C(=O)C(O)=C2C(C)C.[Na+].[Na+]", "CC50": "31.8 µM"}
{"Molecule": "COC(=O)[C@H](Cc1c[nH]c2ccccc12)N/C=C1\\C(=O)C(O)=C(C(C)C)c2cc(C)c(-c3c(C)cc4c(c3O)/C(=C/N[C@@H](Cc3c[nH]c5ccccc35)C(=O)OC)C(=O)C(O)=C4C(C)C)c(O)c21", "CC50": "22 µM"}
{"Molecule": "Cc1cc2c(c(O)c1-c1c(C)cc3c(c1O)/C(=C/N[C@@H](CC(C)C)C(=O)[O-])C(=O)C(O)=C3C(C)C)/C(=C/N[C@@H](CC(C)C)C(=O)[O-])C(=O)C(O)=C2C(C)C.[Na+].[Na+]", "CC50": "42.8 µM"}

Summary for this molecule, Cc1cc2c(c(O)c1-c1c(C)cc3c(c1O)/C(=C/NC(C(=O)[O-])c1ccc(O)cc1)C(=O)C(O)=C3C(C)C)/C(=C/NC(C(=O)[O-])c1ccc(O)cc1)C(=O)C(O)=C2C(C)C.[Na+].[Na+] (centres undefined) : CC50 is 22.2 µM

The molecule listed as Cc1cc2c(c(O)c1-c1c(C)cc3c(c1O)/C(=C/NC(C(=O)[O-])c1ccc(Cl)cc1)C(=O)C(O)=C3C(C)C)/C(=C/NC(C(=O)[O-])c1ccc(Cl)cc1)C(=O)C(O)=C2C(C)C.[Na+].[Na+] (centres undefined) has a reported CC50 of 21.9 µM

Entry COC(=O)[C@H](C)N/C=C1\C(=O)C(O)=C(C(C)C)c2cc(C)c(-c3c(C)cc4c(c3O)/C(=C/N[C@@H](C)C(=O)OC)C(=O)C(O)=C4C(C)C)c(O)c21 ; CC50 = 25.6 µM

For reference, reported CC50 for CC[C@H](C)[C@H](N/C=C1\C(=O)C(O)=C(C(C)C)c2cc(C)c(-c3c(C)cc4c(c3O)/C(=C/N[C@H](C(=O)[O-])[C@@H](C)CC)C(=O)C(O)=C4C(C)C)c(O)c21)C(=O)[O-].[Na+].[Na+] stands at 64.5 µM

The reported value for Cc1cc2c(C(C)C)c(O)c(O)c(/C=N/[C@@H](Cc3ccccc3)C(=O)[O-])c2c(O)c1-c1c(C)cc2c(C(C)C)c(O)c(O)c(/C=N/[C@@H](Cc3ccccc3)C(=O)[O-])c2c1O.[Na+].[Na+] in terms of CC50 is 57.1 µM

get_value(item= Cc1cc2c(c(O)c1-c1c(C)cc3c(c1O)/C(=C/N[C@@H](Cc1c[nH]c4ccccc14)C(=O)[O-])C(=O)C(O)=C3C(C)C)/C(=C/N[C@@H](Cc1c[nH]c3ccccc13)C(=O)[O-])C(=O)C(O)=C2C(C)C.[Na+].[Na+] , readout=CC50) returns 48 µM

// Cc1cc2c(c(O)c1-c1c(C)cc3c(c1O)/C(=C/N[C@@H](CS)C(=O)[O-])C(=O)C(O)=C3C(C)C)/C(=C/N[C@@H](CS)C(=O)[O-])C(=O)C(O)=C2C(C)C.[Na+].[Na+] : CC50 value = 16.5 µM

Memo: Cc1cc2c(c(O)c1-c1c(C)cc3c(c1O)/C(=C/N[C@@H](C)C(=O)[O-])C(=O)C(O)=C3C(C)C)/C(=C/N[C@@H](C)C(=O)[O-])C(=O)C(O)=C2C(C)C.[Na+].[Na+] , reported CC50: 56.2 µM

Item: COC(=O)[C@H](CC(C)C)N/C=C1\C(=O)C(O)=C(C(C)C)c2cc(C)c(-c3c(C)cc4c(c3O)/C(=C/N[C@@H](CC(C)C)C(=O)OC)C(=O)C(O)=C4C(C)C)c(O)c21 | CC50: 33.6 µM

Reported CC50 of CCOC(=O)CN/C=C1\C(=O)C(O)=C(C(C)C)c2cc(C)c(-c3c(C)cc4c(c3O)/C(=C/NCC(=O)OCC)C(=O)C(O)=C4C(C)C)c(O)c21 : 25.7 µM

The molecule listed as Cc1cc2c(c(O)c1-c1c(C)cc3c(c1O)/C(=C/N[C@@H](Cc1ccc(O)cc1)C(=O)[O-])C(=O)C(O)=C3C(C)C)/C(=C/N[C@@H](Cc1ccc(O)cc1)C(=O)[O-])C(=O)C(O)=C2C(C)C.[Na+].[Na+] has a reported CC50 of 54.8 µM

The molecule listed as Cc1cc2c(c(O)c1-c1c(C)cc3c(c1O)/C(=C/NC(C)(C)C(=O)[O-])C(=O)C(O)=C3C(C)C)/C(=C/NC(C)(C)C(=O)[O-])C(=O)C(O)=C2C(C)C.[Na+].[Na+] has a reported CC50 of 99 µM

Recorded CC50 (molecule Cc1cc2c(c(O)c1-c1c(C)cc3c(c1O)/C(=C/N[C@@H](Cc1c[nH]cn1)C(=O)[O-])C(=O)C(O)=C3C(C)C)/C(=C/N[C@@H](Cc1c[nH]cn1)C(=O)[O-])C(=O)C(O)=C2C(C)C.[Na+].[Na+] ): 51.2 µM

// sample Cc1cc2c(c(O)c1-c1c(C)cc3c(c1O)/C(=C/N[C@@H](CO)C(=O)[O-])C(=O)C(O)=C3C(C)C)/C(=C/N[C@@H](CO)C(=O)[O-])C(=O)C(O)=C2C(C)C.[Na+].[Na+] , its CC50 was 68.3 µM

====

Overview of reported CC50 across a group of compounds:
# Assay Procedure: Cytotoxicity against MDCK cells by MTT assay
# Type: cell-based, Canis lupus familiaris
# Experimental Context: dog

Please review the entries below; each comes with its answer.
{"Mol": "Cc1cc2c(C(C)C)c(O)c(O)c(C=O)c2c(O)c1-c1c(C)cc2c(C(C)C)c(O)c(O)c(C=O)c2c1O", "Reported Value": "3.53 µM"}
{"Mol": "Cc1cc2c(c(O)c1-c1c(C)cc3c(c1O)/C(=C/N[C@@H](CS)C(=O)[O-])C(=O)C(O)=C3C(C)C)/C(=C/N[C@@H](CS)C(=O)[O-])C(=O)C(O)=C2C(C)C.[Na+].[Na+]", "Reported Value": "> 43.4 µM"}
{"Mol": "Cc1cc2c(c(O)c1-c1c(C)cc3c(c1O)/C(=C/N[C@@H](C)C(=O)[O-])C(=O)C(O)=C3C(C)C)/C(=C/N[C@@H](C)C(=O)[O-])C(=O)C(O)=C2C(C)C.[Na+].[Na+]", "Reported Value": "> 47.3 µM"}
{"Mol": "Cc1cc2c(c(O)c1-c1c(C)cc3c(c1O)/C(=C/N[C@@H](Cc1ccc(O)cc1)C(=O)[O-])C(=O)C(O)=C3C(C)C)/C(=C/N[C@@H](Cc1ccc(O)cc1)C(=O)[O-])C(=O)C(O)=C2C(C)C.[Na+].[Na+]", "Reported Value": "> 37.5 µM"}

Item: CCOC(=O)CN/C=C1\C(=O)C(O)=C(C(C)C)c2cc(C)c(-c3c(C)cc4c(c3O)/C(=C/NCC(=O)OCC)C(=O)C(O)=C4C(C)C)c(O)c21 | CC50: > 48.5 µM

Item: COC(=O)[C@H](Cc1c[nH]c2ccccc12)N/C=C1\C(=O)C(O)=C(C(C)C)c2cc(C)c(-c3c(C)cc4c(c3O)/C(=C/N[C@@H](Cc3c[nH]c5ccccc35)C(=O)OC)C(=O)C(O)=C4C(C)C)c(O)c21 | CC50: > 36.3 µM

====

Attribute: CC50
# Assay Procedure: Cytotoxicity in human TZM-bl cells by MTT assay
# Format: cell-based
Give the value, in units of µM, as a plain number.

{"Compound": "Cc1cc2c(c(O)c1-c1c(C)cc3c(c1O)/C(=C/NCCCCC(=O)[O-])C(=O)C(O)=C3C(C)C)/C(=C/NCCCCC(=O)[O-])C(=O)C(O)=C2C(C)C.[Na+].[Na+]", "Observable": "CC50", "Unit Of Measurement": "µM", "Reported Value": 32.9}
{"Compound": "COC(=O)C(N/C=C1\\C(=O)C(O)=C(C(C)C)c2cc(C)c(-c3c(C)cc4c(c3O)/C(=C/NC(C(=O)OC)c3ccccc3)C(=O)C(O)=C4C(C)C)c(O)c21)c1ccccc1 (stereo not given)", "Observable": "CC50", "Unit Of Measurement": "µM", "Reported Value": 31.5}
{"Compound": "Cc1cc2c(c(O)c1-c1c(C)cc3c(c1O)/C(=C/NCCCCCCCC(=O)[O-])C(=O)C(O)=C3C(C)C)/C(=C/NCCCCCCCC(=O)[O-])C(=O)C(O)=C2C(C)C.[Na+].[Na+]", "Observable": "CC50", "Unit Of Measurement": "µM", "Reported Value": 29.6}
{"Compound": "Cc1cc2c(c(O)c1-c1c(C)cc3c(c1O)/C(=C/N[C@H](C(=O)[O-])c1ccccc1)C(=O)C(O)=C3C(C)C)/C(=C/N[C@H](C(=O)[O-])c1ccccc1)C(=O)C(O)=C2C(C)C.[Na+].[Na+]", "Observable": "CC50", "Unit Of Measurement": "µM", "Reported Value": 29.9}

Okay, next one:
The recorded CC50 for Cc1cc2c(C(C)C)c(O)c(O)c(C=O)c2c(O)c1-c1c(C)cc2c(C(C)C)c(O)c(O)c(C=O)c2c1O is 9.76
